Data origin: patent US20250376535A1

# systemTested: T1, recombinant human OX40-Fc (human, UniProt P43489 29-214)
# T1 construct: also called rh-OX40-Fc; human OX40 hFC (R & D systems)
# T1 sequence: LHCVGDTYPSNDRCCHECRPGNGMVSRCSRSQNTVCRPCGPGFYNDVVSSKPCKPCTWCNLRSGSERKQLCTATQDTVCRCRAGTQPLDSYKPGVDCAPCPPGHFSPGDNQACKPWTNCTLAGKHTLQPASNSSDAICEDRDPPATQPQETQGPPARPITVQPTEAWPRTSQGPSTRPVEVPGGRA
# testProtocol: BLI, VHH-His on anti-His tips, OX40 hFc in solution;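 note: kinetics recorded at 30 °C in PBS pH 7.2, with 200 s of association followed by dissociation monitored in PBS lacking the OX40 protein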
propertyName: kon (M⁻¹ s⁻¹)

* pgXX88-SZ-15 (VHH, not shown: small tags and cut ends) VHH: QVQLVESGGGLVQPGGSLRLSCSPSEGAFKMLTTGWFRQVLGKEREFVSAISWGGGATYYADSVKGRFTVSRDNAKNTVYLQMNSLKPEDTAVYYCAVDTGNGVATNIRSQSRYDYWGQGTQVTVSS | 539000
* pgXX88-2 (VHH, not shown: small tags and cut ends) VHH: EVQLVESGGGLVQPGGSLRLSCAASGFAFGDIPMMWVRQAPGKGREWVSSISADSATQSYADSVQDRFTISRDNAKNTLYLEMHILKPEDTAVYYCATTDRPPPGQGTQVTVSS | 474000
* pgXX88-81 (VHH, not shown: small tags and cut ends) VHH: EVQLVESGGGLAQPGSSLRLSCTASGTVFSILSATWFRQAPGKAHEARELVAFISSDGVSMHADSVKGRFTISRDNAKSTVYLQMDNLQPEDTAAYYCKLSNSMMGMEYWGRGTQVTVSS | 549000
* pgXX88-83 (VHH, not shown: small tags and cut ends) VHH: EVQLVESGGGLVQTGDSLRLSCAALGGTPSTYAIGWFRQAAGKELQFVARITWNGDTWYADALPGRVAISRDNAKKTVYLQMNNLKPEDTAEYICAADVSEFRDIPNRDSRANYRYWGQGTQVTVSS | 460000
